- System: NCI-H226 lung
- Assay Procedure: NCI-60 one-dose screen, 48 h
- Condition Summary: 10 µM unless noted
This is part of a sample that, as a whole, favours compounds with a hit. Of some 83,000 tested, about 20% had one in any assay. Activity calls are given as the source filed them. Rule for the calls: active = growth percent below 10; inactive = the rest.
Write down the outcome that applies. Available outcomes: yes for active, no for inactive

Look over these answered cases.
- Compound: "O=C1CC(c2ccccc2)Cc2nc3ccc(Br)cc3cc21 (stereo not drawn)"
  Group Label: "no"
- Compound: "CC1(C)CC(=O)c2c(ccc(C(=O)C[C@@H](N)CO)c2N)O1"
  Group Label: "no"
- Compound: "CN(Cc1cccc(C(F)(F)F)c1)C(=O)[C@@H](CC(=O)N1CCC(N2CCCCC2)CC1)N1C(=O)[C@@H](N2C(=O)OC[C@@H]2c2ccccc2)[C@H]1/C=C/c1ccccc1"
  Group Label: "no"
- Compound: "Cc1cccc(C[C@H](NC(=O)Nc2ccc(Cl)cc2F)C(=O)N[C@@H]2C(=O)N3C[C@H](O)C[C@H]3C(=O)N3CCCC[C@H]3C(=O)N[C@@H](C)C(=O)N3C[C@H](C)C[C@H]3C(=O)O[C@H]2C)c1"
  Group Label: "no"
- Compound: "COc1ccc(/C=C(/C2=NCCN2)n2ccc3ccccc32)cc1"
  Group Label: "no"

What outcome does the record of this test show for CCCCC(CCCCCC(CCCC)C1NC(C)Cc2cc(OC)c(OC)cc21)C1NC(C)Cc2cc(OC)c(OC)cc21 (stereo not drawn) ?
yes

Could you kindly confirm the outcome this assay logged for "CC(C)(C)OC(=O)N1C=C/C(=C\Cn2cc(-c3ccccc3)nn2)CC1" ?
no

Name the outcome recorded for O=C1CC(c2ccc3c(c2)OCO3)Nc2ccccc21 (stereo not drawn) in the assay.
no

====

- System: OVCAR-3 ovarian
- Assay Procedure: NCI-60 one-dose screen, 48 h
- Condition Summary: 10 µM unless noted
This is part of a sample that, as a whole, favours compounds with a hit. Of some 83,000 tested, about 20% had one in any assay. Calls of active or inactive are those of the source. The calls were made as follows: active = growth percent below 10; inactive = the rest.
Field 'call' accepts t (active), f (inactive)

Some solved entries appear below for comparison.
- Compound: "Cc1ccc2c(n1)C(=O)C(Cl)=C(Nc1ccc(N3CCN(C)CC3)cc1)C2=O"
  Tgt: "OVCAR-3 ovarian"
  Group Label: "t"
- Compound: "Cc1ccc(-c2cc(-c3ccc(C)cc3)nc(N3CCN(CCNc4ccnc5cc(Cl)ccc45)CC3)n2)cc1"
  Tgt: "OVCAR-3 ovarian"
  Group Label: "t"
- Compound: "CCN1CCN(CC(=O)Nc2nc3ccc(NCc4ccc(Cl)cc4)cc3s2)CC1"
  Tgt: "OVCAR-3 ovarian"
  Group Label: "f"
- Compound: "O=C(N=c1n(-c2ccccc2)nc2n1CCN2C1=NCCN1)c1ccc(Cl)cc1"
  Tgt: "OVCAR-3 ovarian"
  Group Label: "f"
- Compound: "CCCCCCCCCCCCCC[n+]1cccc(C(N)=O)c1"
  Tgt: "OVCAR-3 ovarian"
  Group Label: "t"
- Compound: "Nc1nc(Cl)c2ncn(Cc3cc4c(cc3I)OCO4)c2n1"
  Tgt: "OVCAR-3 ovarian"
  Group Label: "f"
- Compound: "CC1(C)CC[C@]2(C(N)=O)CC[C@]3(C)C(=CC[C@@H]4[C@@]5(C)C/C(=C/c6ccncc6)C(=O)C(C)(C)[C@@H]5CC[C@]43C)[C@@H]2C1"
  Tgt: "OVCAR-3 ovarian"
  Group Label: "t"
- Compound: "CC(C)c1ccc(C(=O)Nc2nc3ccc(O)cc3s2)cc1"
  Tgt: "OVCAR-3 ovarian"
  Group Label: "f"

Assay outcome for "CCOC(=O)COc1c(C)cc(SSc2cc(C)c(OCC(=O)OCC)c(C)c2)cc1C" : what was it?
f

How was "C[C@]12CCc3c(ccc4cc(O)ccc34)[C@@H]1CC[C@H]2O" classified in this test?
f

Dear all, I need the recorded test outcome for "CN(C)CCCNc1nc(-c2cccc(C(Cl)(Cl)Cl)c2)nc(C(Cl)(Cl)Cl)n1" , thank you.
f

====

- Tested on: SK-MEL-28 melanoma
- Assay Procedure: NCI-60 one-dose screen, 48 h
- Condition Summary: 10 µM unless noted
The panel holds about 83,000 compounds, 20% with a hit somewhere; the sample as a whole holds those more often. Active and inactive are the calls of the source. How the source made its calls: active means growth percent below 10; inactive means the rest.
Lab note: assign the record to one of active, inactive

Per the records of this test, what outcome belongs to "Nc1nnc(CSc2nnc3n(Cc4ccccc4)c(=O)c4c5c(sc4n23)CCCC5)s1" ?
inactive

Tell me the recorded outcome of this test for "Cn1c(=O)c(C#N)c(-c2ccco2)n2c(S(=O)(=O)Cc3ccccc3)nnc12" .
inactive

Just curious, what result did "O=[N+]([O-])c1cc([N+](=O)[O-])c(NN=C(c2ccc(O)cc2)c2ccc(O)cc2)cc1Cl" get here?
active

What did this assay record as the result for "CCCCCCCCCCCCNC(=S)N/N=C/c1ccccc1O" ?
inactive

What did the test return for "N#C/C(C(=O)c1ccccc1)=C1/C(=O)Nc2ccc(Br)cc21" ?
inactive

Test call for this compound, please: COc1ccc2nc3c(cc2c1)C(=O)CC(C(F)(F)F)C3 (centres undefined)
inactive

Please indicate how the test categorized "CC(=O)OC[C@]12CC[C@@H]([C@@H](C)C(N)=O)[C@@H]1[C@H]1CC[C@@H]3[C@@]4(C)CC[C@H](OC(C)=O)C(C)(C)[C@@H]4CC[C@@]3(C)[C@]1(C)CC2" .
active

Look up the recorded call for "C=CCCCCOc1ccccc1-c1cnc(OCCCCC=C)n1C" in this test.
inactive

For "CN(C)CCOc1ccc(/C(=C(/CCCl)c2ccccc2)c2ccccc2)cc1" , which call appears in the assay record?
active

====

- System: COLO 205 colon
- Assay Procedure: NCI-60 one-dose screen, 48 h
- Condition Summary: 10 µM unless noted
Compounds without any hit were thinned out: in the full panel of roughly 83,000, 20% have a hit. Active and inactive are the calls of the source. How the source made its calls: active means growth percent below 10; inactive means the rest.
Can you answer with just one of these options? 1 (active), -1 (inactive)

Here's what some known entries look like.
- Compound: "CCN(CC)CCCC(C)Nc1ccnc2cc(Cl)c(SCc3ccccc3)cc12 (stereo not given)"
  Group Label: 1
- Compound: "COc1ccc(NCc2cn(-c3ccc(C(=O)O)cc3)nc2-c2ccc(C(=O)O)cc2)cc1C(F)(F)F"
  Group Label: -1
- Compound: "Brc1ccc(-c2nnc3c4[nH]ccc4ncn23)cc1"
  Group Label: -1
- Compound: "CC1(C)NCCC[C@]2(C)[C@H]3C=CC4=C5C[C@](C)(CO)CC[C@]5(C)CC[C@@]4(C)[C@]3(C)CC[C@@H]12"
  Group Label: 1
- Compound: "CN(C)CCOc1ccc(/C(=C(/CCCl)c2ccccc2)c2ccccc2)cc1"
  Group Label: 1

Tell me the recorded outcome of this test for "O=C(O)c1cn(C2CC2)c2cc(N3CCN(Cc4c(O)ccc5ccccc45)CC3)c(F)cc2c1=O" .
-1

Please let me know the test result on file for "Brc1ccc2c(c1)CN(C1CCCCC1)CO2" .
-1

Dear all, I need the recorded test outcome for "COc1ccc(/C=C(/C(=O)c2ccc(Cl)cc2)C(=O)C(F)(F)F)cc1" , thank you.
-1

Per the records of this test, what outcome belongs to "CCc1cccc(Cl)c1" ?
-1

Record lookup: outcome of this test for "COC(=O)[C@@H](NC(=O)NC(=O)NC(=O)CI)C(C)C" ?
-1

Please state the recorded outcome for this compound: "Nn1c(Nc2ccc(S(=O)(=O)Nc3ncccn3)cc2)nnc(/C=C/c2c(O)ccc3ccccc23)c1=O"
-1

Look up the recorded call for "C#C[C@]1(O)CC[C@H]2[C@@H]3CC=C4c5nc(N)sc5CC[C@]4(C)[C@H]3CC[C@@]21C" in this test.
-1

Dear colleague, could you share the recorded outcome for "CC(C)c1ccc(C(=O)Nc2nc3ccc(O)cc3s2)cc1" when you have a moment?
-1

Could you check what this test reported for "COc1ncc(-c2ccc3nccc(C#CCCCCC(=O)NO)c3c2)cc1NS(=O)(=O)c1ccc(F)cc1F" ?
1

# lookup: test call for "C#C[C@]1(O)CC[C@H]2[C@@H]3CC=C4c5nc(Nc6ccc(OC)cc6OC)sc5CC[C@]4(C)[C@H]3CC[C@@]21C"
1

====

- System: NCI-H226 lung
- Assay Procedure: NCI-60 one-dose screen, 48 h
- Condition Summary: 10 µM unless noted
This is part of a sample that, as a whole, favours compounds with a hit. Of some 83,000 tested, about 20% had one in any assay. Activity calls are given as the source filed them. How the source made its calls: active means growth percent below 10; inactive means the rest.
Just give me one of these, please: active, inactive

Which outcome was entered for the compound "CCCCCCNC(=O)Nc1ncnc2c1ncn2-c1ccccc1" in this test?
inactive

====

As shown below, each of these compounds has a reported growth value.
- Tested on: T-47D breast
- Assay Procedure: NCI-60 one-dose screen, 48 h (100 = growth as untreated, 0 = no growth, -100 = all killed)
- Condition Summary: 10 µM unless noted
The panel holds about 83,000 compounds, 20% with a hit somewhere; the sample as a whole holds those more often. Activity calls are given as the source filed them. The calls were made as follows: active = growth percent below 10; inactive = the rest.

- Structure Smiles String: "Cc1cc(-c2ccc(N=Nc3c(S(=O)(=O)O)cc4cc(S(=O)(=O)O)cc(N)c4c3O)c(C)c2)ccc1N=Nc1cc(S(=O)(=O)O)c2ccccc2c1O"
  Tgt: "T-47D breast"
  growth: "99.6% (inactive)"
- Structure Smiles String: "C=C(C)[C@@H]1CC[C@]2(COC(=O)c3ccccc3C(=O)O)CC[C@]3(C)[C@H](CC[C@@H]4[C@@]5(C)CC[C@H](OC(=O)c6ccccc6C(=O)O)C(C)(C)[C@@H]5CC[C@]43C)[C@@H]12"
  Tgt: "T-47D breast"
  growth: "39.6% [100 µM] (inactive)"

Now look at this one.
I'm curious: which growth was measured for "COc1cc(OC)c(/C=C/C(=O)c2c(N)cc(OC)cc2OC)c(OC)c1" tested on T-47D breast?
49.9% (inactive)
